test system: complément; test: Complement activation (hemolytic concentration 50, CH 50); format: biochemical; design: unit not given here; details: higher CH 50 = less complement activation, better tolerance
Answer each item with its documented CH 50.

Inquiry: What does the data say about its CH 50? Entry: CNC(=O)c1c(I)c(NC(=O)CNC(=O)c2c(I)cc(I)c(N(C)C(C)=O)c2I)c(I)c(C(=O)O)c1I [Analogue complètement iodé du composé 5, reference compound]
Reply text: 3,8

Inquiry: // query CH 50 value for entry CNC(=O)c1c(Br)c(C(=O)NCC(=O)Nc2c(I)c(C(=O)O)c(I)c(C(=O)NCCO)c2I)c(Br)c(N(C)C(C)=O)c1Br [Composé 2]
Reply text: 20,8

Inquiry: Record request: CH 50 value, item CNC(=O)c1c(I)c(C(=O)NCC(=O)Nc2c(Br)cc(Br)c(C(=O)O)c2Br)c(I)c(N(C)C(C)=O)c1I [compound 7]
Reply text: 10,0

Inquiry: I am curious: what CH 50 value has been reported for CNC(=O)c1c(Br)c(C(=O)NCC(=O)Nc2c(I)cc(I)c(C(=O)O)c2I)c(Br)c(N(C)C(C)=O)c1Br [compound 8] ?
Reply text: 11,5

Inquiry: Quick one: CH 50 of CNC(=O)c1c(Br)c(C(=O)NCCC(=O)Nc2c(I)cc(I)c(C(=O)O)c2I)c(Br)c(N(C)C(C)=O)c1Br [compound 12] ?
Reply text: 11,0

Inquiry: Any idea what its CH 50 is? The compound is CNC(=O)c1c(Br)c(C(=O)NCCCC(=O)Nc2c(I)c(C(=O)O)c(I)c(C(=O)NCCO)c2I)c(Br)c(N(C)C(C)=O)c1Br [compound 13]
Reply text: 15,3

Inquiry: Recorded CH 50 for CNC(=O)c1c(I)c(NC(=O)CNC(=O)c2c(Br)cc(Br)c(N(C)C(C)=O)c2Br)c(I)c(C(=O)O)c1I [compound 5] , please?
Reply text: 7,4

Inquiry: For the compound CNC(=O)c1c(I)c(C(=O)NCC(=O)Nc2c(Br)c(C(=O)O)c(Br)c(C(=O)NCCO)c2Br)c(I)c(N(C)C(C)=O)c1I [compound 1] , what CH 50 is on record?
Reply text: 20,2

Data provenance: patent EP0074307A1
